assay.info: Cytotoxicity against human MCF7 cells assessed as cell viability at 2.5 to 100 uM after 48 hrs by MTT assay
Format: cell-based
assay.conditions: read-out: Activity
compounds and their reported viability at 48 h, up to 100 µM
Enter your answer as a number in %; do not include the unit.

Below: 3 compounds and their reported viability at 48 h, up to 100 µM.
O=[N+]([O-])c1ccc(/C=N/n2c(S)nnc2-c2ccccc2)cc1: 60
CN(C)c1ccc(/C=N/n2c(S)nnc2-c2ccccc2)cc1: 65
Cc1ccc(/C=N/n2c(S)nnc2-c2ccccc2)cc1: 65

Would you kindly look at the next entry?
The reported value for COc1ccc(/C=N/n2c(S)nnc2-c2ccccc2)cc1 in terms of viability at 48 h, up to 100 µM is 60
